Test system: MS2 coat protein
assay details: apparent KD of MS2 coat protein; designed switch direction (-1 OFF switch, 1 ON switch): -1; higher = weaker reporter binding
particulars: input ligand: FMN 200 uM
Consider the following sequences and their measured apparent KD of MS2 coat protein readings.
Please append the unit to your numeric answer.

As a guide, the following entries are already answered.
UGUUGUUACGCAGGAUAUGAGGAUCACCCAUAGAAGGAUAUCGAAAGAGAAGGUCUGAGGAUUACCCAGAAGGGCGGGUUAACA [pwkr exNG2 2xF5 2xFMN.1] (Eterna round: R96, puzzle: Exclusion NG 2)	714 nM
AAAUCGGUAGAGGAUAUUGUACAGGAAACGGUGCAAGAAGGUUGCACAUGAGGAUCACCCAUGUUUAAUUGCGA [EX6 #50] (Eterna round: R97, puzzle: Exclusion 6)	33.9 nM
GUCCCACAUGAGGAUCACCCAUGUGAGGAUAUGGUUUCGCUGGCCGUAGCCAGUGGAACCAGAAGGCGCGUGAU [Mat - Exclusion 1 - JL Mod - D17] (Eterna round: R97, puzzle: Exclusion 1)	75 nM
CUCAUGUGAGGAUAUCACCCAAGAGUGAGCAAUCACUAUCAUGAGAAGGCACAUGAGGAUCACCCAUGUUAAAA [Xesoer] (Eterna round: R97, puzzle: Exclusion 4)	11.5 nM

Next sequence, please.
Enquiry: Fill in: apparent KD of MS2 coat protein of ACUUAUAGAGGAUAUACAGAAUAUUACAUGAGGAUCACCCAUGUUCUUCAAUGUAUAUAUGUAGAAGGCUAAGGAA [JL-ex5-4.22 Malcolm mod] (Eterna round: R97, puzzle: Exclusion 5) is ___
Return: 252 nM

###

Test system: K4 kissing-loop RNA reporter;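 further: bound reporter read as fluorescence of individual clusters on recovered sequencing chips by microscopy, with normalized cluster intensities fitted with a binding model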
assay details: apparent KD of K4 kissing-loop reporter; higher = weaker reporter binding
particulars: Eterna round: R107; input ligand: FMN 200 uM
Answer 0 (no) if apparent KD of K4 kissing-loop reporter is under 200 nM, and 1 (yes) if it is 200 nM or more.

Some solved entries appear below for comparison.
GGAGAGCGGAACGAUACCAGCUGCGGCACGCACCGGAAGUUAAGCCAGUGAUGUUGGCGGAGCCCUUGGCAGCGUGCGCGCGUCC [Abeusma]	0 (no)
GGAUAGGAUAGAGGAUAUGGAAAACACAGAAGUGACUUGUUGUGUUUAUCCAUAGGGAGUGAUGUUCCAGAAGGCUGUCCUAUCG [MatMod 22 - Jieux - Exclusion - FMN B]	1 (yes)
UGUACCGAGUCAGGAUAUGACGACUAGUCAAAGACUGGUCGAAAAUCCAGUGAUGUUGGAAAUAAAUCAGAAGGGACUUGGUACU [FmnBS 16 #SwitchBubble #StaticStem]	0 (no)
UGUAUGUGAUUUGAUACCAGACCAGCUGGUGGUGUAUGAGUGAUGUUCAUGUUGGUUUGGGUCCCUUGGCAGCAAAUCGCAUACU [KL-SSTheoB30]	0 (no)
AAGUGAUGUUGUAGUGAUGUUGUGAUGUUGCAGGAUAUAUAGUGAUGUAGAAGGGUAUGUGCAGUUUUCUUUUUUGAGUGUUGAU [aavamullin]	0 (no)

Enquiry: Would you say AAACGUUGGUCUGAUACCAGCUGAUCGGAAACGAUCUUGCUGGAGUGAUGUUCCAGGAAAAGCCCUUGGCAGCAGACCGACGAAA [MAT - Same State Theophlline B - Mod of Eli - D25] shows apparent KD of K4 kissing-loop reporter at minimum 200 nM?
Return: 1 (yes)

Enquiry: Would you say AUUAAUUUCAGAGGAUAUCGUAUUUAUAUUUUAUCUUUCCAUAUUUGCAGUGAUGUUGCAUUAAUUCGAGAAGGCUGAUUUAUAA [JR_ExcFMNB_Sub008] shows apparent KD of K4 kissing-loop reporter at minimum 200 nM?
Return: 0 (no)

Enquiry: Would you say GUAGGAUGAGGAGGAGGAUGAAUUACUGAAGGAGCGCAUAUUUUUGCAGGUAGGUCGCGGUAAAGAAGUAUAGUGAUGUUAUAUA [SSArgA.J] shows apparent KD of K4 kissing-loop reporter at minimum 200 nM?
Return: 1 (yes)

Enquiry: Would you say UGACUGGACUGAAGGAGCGUUGAAGGAGCGUAGUGAGUGAUGUUCACUACAGGUAGGUCGCAGCAGGUAGGUCGCAGUCUAGUCU [ArgBS 25 #DoubleAptamer #SwitchBubble] shows apparent KD of K4 kissing-loop reporter at minimum 200 nM?
Return: 0 (no)

Just for reference, the supplement of paper PMC9170038 is where these values come from.
